- TEST DETAILS: qHTS assay to identify small molecule agonists of the vitamin D receptor (VDR) signaling pathway - cell viability counter screen (AID 743224); also: nearly all actives have a fitted effect of over 50% in size
- TEST CONDITIONS: VDR-bla HEK293T viability, CellTiter-Glo luminescence, 16 h; series mostly up to 62.6 µM
Results filed as inconclusive are left out. The source made the active and inactive calls. Calls follow the shape of the dose curve; as a rule, active = well fitted cell-killing curve with a large enough effect in the repeat runs; inconclusive = weak or mixed curves, or effect the other way; inactive = no such curve, though single readings can be large or run the other way.
Classes used: 1 = active, -1 = inactive

O=C(O)C(F)(F)C(F)(F)C(F)(F)C(F)(F)C(F)(F)C(F)(F)C(F)(F)C(F)(F)F    -1
COc1cc(C[C@@H](C)N)c(OC)cc1Br    -1
Cc1cnc(C2=NC(C)(C(C)C)C(=O)N2)c(C(=O)O)c1 (stereo not drawn)    -1
CCc1ccccc1N    -1
CN[C@@H](C)[C@H](O)c1ccccc1    -1
CCc1cnc(C2=NC(C)(C(C)C)C(=O)N2)c(C(=O)O)c1 (stereo not drawn)    -1
C[Si](Cn1cncn1)(c1ccc(F)cc1)c1ccc(F)cc1    1
COc1cc(CC(C)N)c(OC)cc1Br (stereo not drawn)    -1
N#CC1(N=NC2(C#N)CCCCC2)CCCCC1    -1
O=[N+]([O-])/C=C/c1ccccc1    1
C[C@H](N)[C@H](O)c1ccc(O)c(O)c1    -1
O=C(Cl)OCCOCCOC(=O)Cl    -1
CCOP(=O)(O)C(N)=O    -1
